For each of the compounds below, state its Minimal Inhibitory Concentration (MIC).
Tested on: S. aureus ATCC700699
test-name: MIC by microdilution, S. aureus ATCC700699
Assay type: cell-based, Staphylococcus aureus
Design: unit not given here
experimental-conditions: S. aureus ATCC700699 (MecA positive, glycopeptide resistant), in duplicate
Give your answer as a number; write no unit.

GET /values?readout=Minimal Inhibitory Concentration (MIC)&item= CC[P+](CC)(CC)[Au-][c]1nn[nH]c1CNC(=O)CCCC[C@@H]1SC[C@@H]2NC(=O)N[C@@H]21
0.25

Which measured Minimal Inhibitory Concentration (MIC) value corresponds to CC[P+](CC)(CC)[Au-][c]1nn[nH]c1-c1c(C)noc1C ?
0.125

Entry under review: CC[P+](CC)(CC)[Au-][c]1nn[nH]c1-c1ccc(C(=O)O)cc1 . Reported Minimal Inhibitory Concentration (MIC)?
0.125

Please look up its Minimal Inhibitory Concentration (MIC): CC[P+](CC)(CC)[Au-][c]1nn[nH]c1CCC(=O)NC(C(=O)NC1C(=O)N2C1SC(C)(C)C2C(=O)O)c1ccccc1 (centres unmarked)
0.125

GET /values?readout=Minimal Inhibitory Concentration (MIC)&item= CC(=O)O.CC[P+](CC)(CC)[Au-][c]1nn[nH]c1CCN
0.125

Entry CC[P+](CC)(CC)[Au-][c]1nn[nH]c1COC(=O)N[C@H](Cc1c[nH]c2ccccc12)C(=O)O has what Minimal Inhibitory Concentration (MIC)?
0.25

Quick one: Minimal Inhibitory Concentration (MIC) for CC[P+](CC)(CC)[Au-][c]1nn[nH]c1COC(=O)N[C@H](CC(=O)O)C(=O)O ?
0.125

May I ask what Minimal Inhibitory Concentration (MIC) has been recorded for CC[P+](CC)(CC)[Au-][c]1nn[nH]c1COC(=O)N1CCC[C@@H]1C(=O)O ?
0.125

What does the record list as Minimal Inhibitory Concentration (MIC) for CC[P+](CC)(CC)[Au-][c]1nn[nH]c1COC(=O)NC(C(=O)O)c1ccccc1 (centres unmarked) ?
0.25

If you can, please state the reported Minimal Inhibitory Concentration (MIC) value of CC[P+](CC)(CC)[Au-][c]1nn[nH]c1CNC(=O)NC(C(=O)O)c1ccccc1 (centres unmarked) .
0.125

# lookup: Minimal Inhibitory Concentration (MIC) of CC[P+](CC)(CC)[Au-][c]1nn[nH]c1CNc1c(F)cc2c(=O)c(C(=O)O)cn3c2c1OCC3C (centres unmarked)
0.25

Can you look up the measured Minimal Inhibitory Concentration (MIC) of CC[P+](CC)(CC)[Au-][c]1nn[nH]c1CN1C(=O)NC2CSC(CCCCC(=O)O)C21 (centres unmarked) for me?
0.5

Please report the recorded Minimal Inhibitory Concentration (MIC) for CC[P+](CC)(CC)[Au-][c]1nn[nH]c1COC(=O)NCC(=O)O .
0.125

Which Minimal Inhibitory Concentration (MIC) is reported for this compound? CC[P+](CC)(CC)[Au-][c]1nn[nH]c1COC(=O)N[C@@H](CCCNC(=N)N[N+](=O)[O-])C(=O)O
0.25

Look up Minimal Inhibitory Concentration (MIC) for this compound: CC[P+](CC)(CC)[Au-][c]1nn[nH]c1C1CCC(C(=O)O)CC1 (centres unmarked)
0.25

Looking for the measured Minimal Inhibitory Concentration (MIC) of CC[P+](CC)(CC)[Au-][c]1nn[nH]c1CC(N)C(=O)O (centres unmarked) , can you help?
0.25

Tell me the measured Minimal Inhibitory Concentration (MIC) of CC[P+](CC)(CC)[Au-][c]1nn[nH]c1-c1ccc(C(=O)NC(C(=O)O)c2ccccc2)cc1 (centres unmarked) , please.
0.125

Would you mind telling me what Minimal Inhibitory Concentration (MIC) value was observed for CC[P+](CC)(CC)[Au-][c]1nn[nH]c1CCC(=O)N[C@H](CO)C(=O)O ?
0.125

Can you share its Minimal Inhibitory Concentration (MIC)? I mean this compound: CC[P+](CC)(CC)[Au-][c]1nn[nH]c1COC(=O)NC(C(=O)O)c1ccc(O)cc1 (centres unmarked)
0.25

What Minimal Inhibitory Concentration (MIC) value was documented for this compound, CC[P+](CC)(CC)[Au-][c]1nn[nH]c1-c1cn[nH]c1 ?
0.125

Give the measured Minimal Inhibitory Concentration (MIC) of CC[P+](CC)(CC)[Au-][c]1nn[nH]c1-c1cccc(C(=O)O)c1 .
0.25

Which Minimal Inhibitory Concentration (MIC) reading was recorded for the compound CC[P+](CC)(CC)[Au-][c]1nn[nH]c1CCC(=O)NC(C(=O)O)c1ccccc1 (centres unmarked) ?
0.125

----------
Tested on: E. faecalis UCN41
test-name: MIC by microdilution, E. faecalis UCN41
Type: cell-based, Enterococcus faecalis
Parameters: unit not given here
experimental-conditions: E. faecalis UCN41 (VanA positive, glycopeptide resistant), in duplicate
measurement-name: Minimal Inhibitory Concentration (MIC)
Please respond with just the number, no unit label.

What reported Minimal Inhibitory Concentration (MIC) corresponds to CC[P+](CC)(CC)[Au-][c]1nn[nH]c1C1CCC(C(=O)O)CC1 (stereo not shown) [TMB25] on E. faecalis UCN41?
0.125

Notebook entry, E. faecalis UCN41 assay: Minimal Inhibitory Concentration (MIC) of CC1(C)S[C@@H]2[C@H](NC(=O)[C@H](NC(=O)OCc3cnn[nH]3)c3ccccc3)C(=O)N2[C@H]1C(=O)O [TMB5] = ?
8

Record CC[P+](CC)(CC)[Au-][c]1nn[nH]c1CC(N)C(=O)O (stereo not shown) [TMB37] : what is its Minimal Inhibitory Concentration (MIC) with E. faecalis UCN41?
0.5

Item CC1(C)S[C@@H]2[C@H](NC(=O)[C@H](NC(=O)CCc3cnnn3Cc3ccccc3)c3ccccc3)C(=O)N2[C@H]1C(=O)O [TMB6] with E. faecalis UCN41 - Minimal Inhibitory Concentration (MIC)?
8

----------
System: E. faecium ATCC19434T
test-name: MIC by microdilution, E. faecium ATCC19434T
Assay type: cell-based, Enterococcus faecium
Set-up: unit not given here
experimental-conditions: E. faecium ATCC19434T (wild-type), in duplicate
measurement-name: Minimal Inhibitory Concentration (MIC)

Provide value of Minimal Inhibitory Concentration (MIC) for this record tested with E. faecium ATCC19434T: CC1(C)S[C@@H]2[C@H](NC(=O)[C@H](NC(=O)CCc3cnnn3Cc3ccccc3)c3ccccc3)C(=O)N2[C@H]1C(=O)O
8

Observed Minimal Inhibitory Concentration (MIC) on E. faecium ATCC19434T for CC1(C)S[C@@H]2[C@H](NC(=O)[C@H](N)c3ccccc3)C(=O)N2[C@H]1C(=O)O [Ampi, ampicillin, reference compound] , please.
0.5

For the record CC[P+](CC)(CC)[Au-][c]1nn[nH]c1COC(=O)N[C@@H](CCCNC(=N)N[N+](=O)[O-])C(=O)O , what value of Minimal Inhibitory Concentration (MIC) is listed for E. faecium ATCC19434T?
0.5

Entry CC1(C)S[C@@H]2[C@H](NC(=O)[C@H](NC(=O)OCc3cnn[nH]3)c3ccccc3)C(=O)N2[C@H]1C(=O)O , system E. faecium ATCC19434T: what Minimal Inhibitory Concentration (MIC) was measured?
8

Please tell me: Minimal Inhibitory Concentration (MIC) of CC[P+](CC)(CC)[Au-][c]1nn[nH]c1-c1cccc(C(=O)NC(C(=O)NC2C(=O)N3C2SC(C)(C)C3C(=O)O)c2ccccc2)c1 (centres unmarked) , system E. faecium ATCC19434T?
0.5

Field: Minimal Inhibitory Concentration (MIC) (E. faecium ATCC19434T). Entry: CC[P+](CC)(CC)[Au-][c]1nn[nH]c1CCS(N)(=O)=O
0.25

What value of Minimal Inhibitory Concentration (MIC) on E. faecium ATCC19434T does CC[P+](CC)(CC)[Au-][c]1nn[nH]c1COC(=O)NC(C(=O)O)c1ccc(O)cc1 (centres unmarked) have?
0.25

Find the measured Minimal Inhibitory Concentration (MIC): item CC[P+](CC)(CC)[Au-][c]1nn[nH]c1COC(=O)N[C@H](CC(=O)O)C(=O)O , target or system E. faecium ATCC19434T.
0.25

# returns recorded Minimal Inhibitory Concentration (MIC) (system: E. faecium ATCC19434T) for C[C@@H]1COc2c(N3CCN(C)CC3)c(F)cc3c(=O)c(C(=O)O)cn1c23 [TMB47, Ofloxacin, reference compound]
4

Param readout = Minimal Inhibitory Concentration (MIC); param system = E. faecium ATCC19434T; param query = CC[P+](CC)(CC)[Au-][c]1nn[nH]c1CCCO ; response: value
0.125

Param readout = Minimal Inhibitory Concentration (MIC); param system = E. faecium ATCC19434T; param query = CC1(C)S[C@@H]2[C@H](NC(=O)[C@H](NC(=O)OCc3cnnn3Cc3ccccc3)c3ccccc3)C(=O)N2[C@H]1C(=O)O ; response: value
8

I'm curious: which Minimal Inhibitory Concentration (MIC) was measured for CC[P+](CC)(CC)[Au-][c]1nn[nH]c1-c1ccc(C(=O)NC(C(=O)O)c2ccccc2)cc1 (centres unmarked) tested on E. faecium ATCC19434T?
0.25

Short answer please: Minimal Inhibitory Concentration (MIC), E. faecium ATCC19434T, entry CC[P+](CC)(CC)[Au-][c]1nn[nH]c1C1CCC(C(=O)O)CC1 (centres unmarked)
0.125

// fetch E. faecium ATCC19434T Minimal Inhibitory Concentration (MIC) for CC[P+](CC)(CC)[Au-][c]1nn[nH]c1CN1CCN(C)CC1
0.25

Find Minimal Inhibitory Concentration (MIC) (E. faecium ATCC19434T) for the entry CC[P+](CC)(CC)[Au-][c]1nn[nH]c1-c1cccc(C(=O)O)c1
0.5

Find Minimal Inhibitory Concentration (MIC) (E. faecium ATCC19434T) for the entry CC[P+](CC)(CC)[Au-][c]1nn[nH]c1CN1C(=O)NC2CSC(CCCCC(=O)O)C21 (centres unmarked)
1

Could you share what Minimal Inhibitory Concentration (MIC) was measured for CC[P+](CC)(CC)[Au-][c]1nn[nH]c1COC(=O)N1CCC[C@@H]1C(=O)O , tested on E. faecium ATCC19434T?
0.25

Give the reported Minimal Inhibitory Concentration (MIC) for CC[P+](CC)(CC)[Au-][c]1nn[nH]c1CCC(=O)NC(C(=O)NC1C(=O)N2C1SC(C)(C)C2C(=O)O)c1ccccc1 (centres unmarked) (system: E. faecium ATCC19434T).
0.5

# returns recorded Minimal Inhibitory Concentration (MIC) (system: E. faecium ATCC19434T) for CC(=O)OC[C@H]1O[C@@H]([S-])[C@H](OC(C)=O)[C@@H](OC(C)=O)[C@@H]1OC(C)=O.CCP(CC)CC.[Au+] [Auranofin, reference compound]
≤0.06

GET /values?readout=Minimal Inhibitory Concentration (MIC)&system=E. faecium ATCC19434T&item= O=C(CCc1cnn[nH]1)N[C@@H](C(=O)O)c1ccccc1
>8

# query: Minimal Inhibitory Concentration (MIC) | item CC[P+](CC)(CC)[Au-][c]1nn[nH]c1COC(=O)NC(C(=O)O)c1ccccc1 (centres unmarked) [TMB45] | system: E. faecium ATCC19434T
0.25

Entry CC[P+](CC)(CC)[Au-][c]1nn[nH]c1COC(=O)NC(C(=O)OC(C)(C)C)c1ccccc1 (centres unmarked) , system E. faecium ATCC19434T: what Minimal Inhibitory Concentration (MIC) was measured?
2

Hi! What's the reported Minimal Inhibitory Concentration (MIC) for CC[P+](CC)(CC)[Au-][c]1nn[nH]c1CCC(=O)N[C@H](CO)C(=O)O on E. faecium ATCC19434T?
≤0.06

I'm curious: which Minimal Inhibitory Concentration (MIC) was measured for CC[P+](CC)(CC)[Au-][c]1nn[nH]c1COC(=O)NC(C(=O)O)c1ccccc1 (centres unmarked) [TMB1] tested on E. faecium ATCC19434T?
0.5

Checklist item: Minimal Inhibitory Concentration (MIC) tested on E. faecium ATCC19434T, entry CC[P+](CC)(CC)[Au-][c]1nn[nH]c1CN1CCOCC1 , value?
0.25

Which measured Minimal Inhibitory Concentration (MIC) belongs to CC(=O)O.CC[P+](CC)(CC)[Au-][c]1nn[nH]c1CCN , tested on E. faecium ATCC19434T?
0.25

For E. faecium ATCC19434T, provide Minimal Inhibitory Concentration (MIC) of O=C(N[C@@H](C(=O)O)c1ccccc1)OCc1cnn[nH]1 please.
>8

Can you look up Minimal Inhibitory Concentration (MIC) on E. faecium ATCC19434T for CC[P+](CC)(CC)[Au-][c]1nn[nH]c1-c1c(C)noc1C ?
0.125

Recorded Minimal Inhibitory Concentration (MIC) for C#CCNc1c(F)cc2c(=O)c(C(=O)O)cn3c2c1OCC3C (centres unmarked) with E. faecium ATCC19434T, please?
>8

Report Minimal Inhibitory Concentration (MIC) for CC1(C)S[C@@H]2[C@H](NC(=O)[C@H](NC(=O)CCc3cn(Cc4ccccc4)nn3)c3ccccc3)C(=O)N2[C@H]1C(=O)O tested on E. faecium ATCC19434T.
8

Recall the recorded Minimal Inhibitory Concentration (MIC) for CC[P+](CC)(CC)[Au-][c]1nn[nH]c1-c1ccc(C(=O)O)cc1 with E. faecium ATCC19434T and state it.
0.5

Recorded Minimal Inhibitory Concentration (MIC) for CC[P+](CC)(CC)[Au-][c]1nn[nH]c1-c1cn[nH]c1 with E. faecium ATCC19434T, please?
0.25
